- ASSAY_EXPLANATION: Single ascending oral dose study in healthy volunteers: plasma pharmacokinetics
- Type: in vivo, human
- PROTOCOL_CONDITIONS: human, plasma, oral, 25 mg; read-out: AUC0-∞, Median
ENDPOINT_LABEL: AUC(0-inf) (ng·h/mL)
State the answer as a number, implicitly in ng·h/mL.

Query string: Supply reported AUC(0-inf) belonging to this molecule: `Cn1cc(S(=O)(=O)[C@@](C)(F)C2CCN(C(=O)Nc3ccon3)CC2)c(C(F)F)n1`
Result string: 7570

====

- ASSAY_EXPLANATION: Single ascending oral dose study in healthy volunteers: plasma pharmacokinetics
- Format: in vivo, human
- PROTOCOL_CONDITIONS: human, plasma, oral, 10 mg, 24 Hours Postdose; 10 mg; read-out: Plasma concentration, Mean
ENDPOINT_LABEL: concentration at 24 h (ng/mL)
State the answer as a number, implicitly in ng/mL.

Query string: Supply reported concentration at 24 h belonging to this compound: `Cn1cc(S(=O)(=O)[C@@](C)(F)C2CCN(C(=O)Nc3ccon3)CC2)c(C(F)F)n1`
Result string: 57.8
